Exercise: for every item that follows, state its recorded TGI.
- System: MDA-MB-435
- protocol: NCI tumour cell line growth inhibition, 48 h

Consider the following illustrative entries.
Cc1cc(S(=O)(=O)Nc2n[nH]c(-c3ccc(Cl)cn3)n2)c(S)cc1Cl :: > 100 µM
COc1ccc(-n2c(N)c(C#N)c(C#N)c2-c2cccc([N+](=O)[O-])c2)cc1 :: > 100 µM
O=CC12c3ccccc3C(c3ccccc31)C1C(=O)NC(=O)C12 (centres undefined) :: > 100 µM

Lab note: next molecule to report on.
Prompt: Reported TGI for C[C@@H](c1ccccc1)N1CN(C(=O)OCc2ccccc2)C(CO)C1=O (some centres undefined) : what is it?
Response: > 100 µM
